- measurementProtocol: Microsomal Stability Assay, mouse liver microsomes
- Type: in vitro ADME
- statedConditions: mouse liver microsomes, 60 min
property: Microsomal Stability Mouse % rem. 60 min

Known Microsomal Stability Mouse % rem. 60 min results, listed for orientation:
compound | property | result
c1cnc2cc(N3CCOCC3)nc(O[C@H]3CC[C@@H](Nc4ncc(OCCN5CCOCC5)cn4)CC3)c2c1 | Microsomal Stability Mouse % rem. 60 min | F (% remaining = 25-50%)
O=C(Nc1ccncc1)[C@H]1CC[C@@H](Oc2nc(N3CCOCC3)cc3ncccc23)CC1 [Compound 154e] | Microsomal Stability Mouse % rem. 60 min | E (% remaining = 0-25%)
CN(C)C(=O)Cn1ccc2nc(N[C@H]3CC[C@@H](Oc4nc(N5CCOCC5)cc5ncccc45)CC3)ncc21 | Microsomal Stability Mouse % rem. 60 min | G (% remaining = 50-75%)
CN(C)C(=O)Cn1cccc1C(=O)N[C@H]1CC[C@@H](Oc2nc(N3CCOCC3)cc3ncccc23)CC1 | Microsomal Stability Mouse % rem. 60 min | F (% remaining = 25-50%)
CN(C)C(=O)COc1ccc(C(=O)N[C@H]2CC[C@@H](Oc3nc(N4CCOCC4)cc4ncccc34)CC2)cn1 | Microsomal Stability Mouse % rem. 60 min | F (% remaining = 25-50%)
O=S(=O)(Nc1cnc2cc(N3CCOCC3)nc(O[C@H]3CC[C@@H](Nc4ncccn4)CC3)c2c1)C1CC1 | Microsomal Stability Mouse % rem. 60 min | G (% remaining = 50-75%)
Cn1cc([C@H]2CC[C@@H](Oc3nc(N4CCOCC4)cc4ncc(OCCO)cc34)CC2)cn1 | Microsomal Stability Mouse % rem. 60 min | E (% remaining = 0-25%)
CN(C)CCOc1cnc(N[C@H]2CC[C@@H](Oc3nc(N4CCOCC4)cc4ncccc34)CC2)nc1 | Microsomal Stability Mouse % rem. 60 min | G (% remaining = 50-75%)

Entry CONC(=O)c1cnc2cc(N3CCOCC3)nc(O[C@H]3CC[C@@H](n4ccnc4)CC3)c2c1 : reported Microsomal Stability Mouse % rem. 60 min = ?
G (% remaining = 50-75%)

Entry CN(C)C(=O)COc1cnc(N[C@H]2CC[C@@H](Oc3nc(N4CCOCC4)cc4ncccc34)CC2)nc1 : reported Microsomal Stability Mouse % rem. 60 min = ?
G (% remaining = 50-75%)

Entry CC1(C)CN(c2cc3ncccc3c(O[C@H]3CC[C@@H](n4ccnc4)CC3)n2)CC(C)(C)O1 : reported Microsomal Stability Mouse % rem. 60 min = ?
E (% remaining = 0-25%)

Entry CC(=O)NC(=O)c1cnc2cc(N3CCOCC3)nc(O[C@H]3CC[C@@H](n4ccnc4)CC3)c2c1 : reported Microsomal Stability Mouse % rem. 60 min = ?
E (% remaining = 0-25%)

Entry NC(=O)c1cnc2cc(N3CCOCC3)nc(O[C@H]3CC[C@@H](n4ccnc4)CC3)c2c1 : reported Microsomal Stability Mouse % rem. 60 min = ?
E (% remaining = 0-25%)

Entry c1ccc(-c2cnc3cc(N4CCOCC4)nc(O[C@H]4CC[C@@H](n5ccnc5)CC4)c3c2)cc1 : reported Microsomal Stability Mouse % rem. 60 min = ?
E (% remaining = 0-25%)

Entry O=C(NO)c1cnc2cc(N3CCOCC3)nc(O[C@H]3CC[C@@H](n4ccnc4)CC3)c2c1 : reported Microsomal Stability Mouse % rem. 60 min = ?
G (% remaining = 50-75%)

Entry CN(C)C(=O)COc1ccnc(N[C@H]2CC[C@@H](Oc3nc(N4CCOCC4)cc4ncccc34)CC2)n1 : reported Microsomal Stability Mouse % rem. 60 min = ?
E (% remaining = 0-25%)

Entry CN(C)C(=O)COc1ccc(N[C@H]2CC[C@@H](Oc3nc(N4CCOCC4)cc4ncccc34)CC2)nc1 : reported Microsomal Stability Mouse % rem. 60 min = ?
E (% remaining = 0-25%)

Entry NC(=O)N[C@H]1CC[C@@H](Oc2nc(N3CCOCC3)cc3ncccc23)CC1 : reported Microsomal Stability Mouse % rem. 60 min = ?
E (% remaining = 0-25%)

Entry CONC(=O)COc1cnc(N[C@H]2CC[C@@H](Oc3nc(N4CCOCC4)cc4ncccc34)CC2)nc1 : reported Microsomal Stability Mouse % rem. 60 min = ?
E (% remaining = 0-25%)
